Tested on: Caco-2
Test: drug sensitivity score (DSS) for viability; higher = more toxic; extreme values may be limits of the assay
Settings: 72 h
In this section, each of the molecules is paired with its reported drug sensitivity score.
observed property: drug sensitivity score

> print(dat)
                                   molecule  val
1   Cc1ccc2c(Br)cc(Br)c(OC(=O)c3ccccc3)c2n1  4.9
2  NCC(=O)Nc1ccc(-n2nc(C(F)(F)F)cc2-c2ccc3c(ccc4ccccc43)c2)cc1    0
3  CCC(=O)O[C@H](CC(=O)O)C[N+](C)(C)C [levocarnitine-propionate]    0
4  Cn1c(NC[C@@H](N)Cc2ccccc2)nc(-c2ccncc2)c(-c2ccc3ccccc3c2)c1=O  2.8

---

Test system: Calu-3
Test: cell viability relative to DMSO; higher = less toxic
Conditions: 72 h; 1000 nM

compound	assayed system	cell viability / %
COc1cc2ncnc(Nc3ccc(F)c(Cl)c3)c2cc1NC(=O)/C=C/CN1CCCCC1 [dacomitinib]	Calu-3	32.1
CCC(CC)Nc1cc(C)nc(Oc2c(C)cc(C)cc2C)c1C	Calu-3	96.5
Cc1nc(C#Cc2ccnc(Cl)c2)c(C)n1-c1ccc(OC(F)(F)F)cc1 [CTEP]	Calu-3	96.5
O=C(O)C1=C(CSc2nnnn2CS(=O)(=O)O)CS[C@@H]2[C@H](NC(=O)[C@H](O)c3ccccc3)C(=O)N12 [Cefonicid (sodium)]	Calu-3	96.6
C[C@H]1C[C@H]2[C@@H]3CCC4=CC(=O)C=C[C@]4(C)[C@H]3C(=O)C[C@]2(C)[C@@]1(O)C(=O)CO [Betapar (Meprednisone)]	Calu-3	91
CCC(=O)O[C@H](CC(=O)O)C[N+](C)(C)C [levocarnitine-propionate]	Calu-3	100
COc1ccn2ncc(-c3nc4[nH]nc(NC(=O)c5ccc(F)cc5)c4cc3F)c2c1 [CW-008]	Calu-3	97.8
Cc1ccc(-c2ccc(C)cn2)nc1 [abametapir]	Calu-3	92.6
O=c1[nH]cnc2c([C@@H]3N[C@H](CO)[C@@H](O)[C@H]3O)c[nH]c12 [forodesine]	Calu-3	91.5
Nc1nc(NCCc2ccc(O)cc2)nc2nc(-c3ccco3)nn12	Calu-3	98.2
CC(C)(COP(=O)(O)OP(=O)(O)OC[C@H]1O[C@@H](n2cnc3c(N)ncnc32)[C@H](O)[C@@H]1OP(=O)(O)O)[C@@H](O)C(=O)NCCC(=O)NCCS [coenzyme-A]	Calu-3	99.8
O=[N+]([O-])/C=C/c1ccc2c(c1)OCO2 [3,4-methylenedioxy-beta-nitrostyrene]	Calu-3	100
COc1ccc(NS(=O)(=O)c2ccc(/N=N/c3ccc(O)c(C(=O)O)c3)cc2)nn1 [salazodine]	Calu-3	116

---

In this section, each of the compounds is paired with its reported relative viability EC50.
System: Calu-3
Assay: relative viability EC50 (midpoint between 100% and the lowest measured viability); higher = less toxic
Details: 72 h
observed property: relative viability EC50

> print(dat)
                                    compound        observed.property        val
 1  CC(=O)[C@@]12O[C@](C)(c3ccccc3)O[C@@H]1C[C@H]1[C@@H]3CCC4=CC(=O)CC[C@]4(C)[C@H]3CC[C@@]12C [algestone-acetophenide]  relative viability EC50    > 10 µM
 2      COc1ccccc1CN[C@H]1CCCN[C@H]1c1ccccc1  relative viability EC50    > 10 µM
 3  FC(F)(F)Oc1ccc2nc(-c3ccc(OCCOCCOc4ccc(-c5nc6ccc(OC(F)(F)F)cc6[nH]5)nc4)cn3)[nH]c2c1  relative viability EC50    > 10 µM
 4             O=C(N/N=C/c1ccccc1O)c1ccccc1O  relative viability EC50    3.11 µM
 5                   Clc1cccc(Cl)c1NC1=NCCN1  relative viability EC50    > 10 µM
 6  CN(C)CCOC(=O)COc1ccc(Cl)cc1 [meclofenoxate]  relative viability EC50    > 10 µM
 7                   CCc1cccc(CC)c1NC1=NCCN1  relative viability EC50    > 10 µM
 8  NCC(=O)Nc1ccc(-n2nc(C(F)(F)F)cc2-c2ccc3c(ccc4ccccc43)c2)cc1  relative viability EC50    3.39 µM
 9  CCCCOc1c(C(=O)c2c(F)cc(C)cc2F)c[nH]c2nncc1-2  relative viability EC50    > 10 µM
10  OCc1cc([C@@H](O)CNCCCCCCOCCOCc2c(Cl)cccc2Cl)ccc1O  relative viability EC50    > 10 µM
11  Cn1c(=O)c(F)c(Nc2ccc(I)cc2F)c2c(=O)n(C[C@@H](O)CO)cnc21  relative viability EC50  0.0323 µM
12  COc1ccn2ncc(-c3nc4[nH]nc(NC(=O)c5ccc(F)cc5)c4cc3F)c2c1  relative viability EC50    > 10 µM

---

Test system: Calu-3
Assay: cell viability relative to DMSO; higher = less toxic
Conditions: 72 h; 10 nM
In this section, each of the compounds is paired with its reported cell viability.
observed property: cell viability (%)

> print(dat)
                                   compound   val
1  O=C(Nc1cc(Oc2cc(F)c(NC(=O)C3(C(=O)Nc4ccc(F)cc4)CC3)cc2F)ccn1)C1CC1 [altiratinib]   110
2  CC1(c2ccccc2)OC(C(=O)O)=CC1=O (stereo not given) [acifran]  93.6
3  CCS(=O)(=O)N(C)[C@H]1c2cc(C#N)ccc2OC(C)(C)[C@@H]1O [chromanol-293B-(-)-[3R,4S]]  99.2
4  COC(=O)N/N=C/c1c[n+]([O-])c2ccccc2[n+]1[O-] [carbadox]  84.8
5  CCC(CC)CC1(C(=O)Nc2ccccc2SC(=O)C(C)C)CCCCC1 [dalcetrapib]  95.4

---

System: Caco-2
Test: cell viability relative to DMSO; higher = less toxic
Settings: 72 h; 1000 nM
observed property: cell viability (%)

> print(dat)
                                    compound   val
 1  CC(C)(C)NS(=O)(=O)c1cncc(-c2cc(F)c3nc(N)nn3c2)c1  87.7
 2          Nc1nc(OCc2cc(Br)cs2)c2[nH]cnc2n1  96.1
 3  O=c1[nH]cnc2c([C@@H]3N[C@H](CO)[C@@H](O)[C@H]3O)c[nH]c12   101
 4  Oc1cc(O)c2c(c1)O[C@H](c1ccc(O)c(O)c1)[C@H](O)[C@H]2c1c(O)cc(O)c2c1O[C@H](c1ccc(O)c(O)c1)[C@H](O)C2  98.7
 5  C=CCNC1=C2C[C@@H](C)C[C@H](OC)[C@H](O)[C@@H](C)/C=C(\C)[C@H](OC(N)=O)[C@@H](OC)/C=C\C=C(/C)C(=O)NC(=CC1=O)C2=O  71.8
 6  Cn1c(Nc2ccc(C(F)(F)F)cc2)nc2cc(Oc3ccnc(-c4ncc(C(F)(F)F)[nH]4)c3)ccc21  66.3
 7  COc1ccc2c(c1)c(CC(=O)N1CCOCC1)c(C)n2C(=O)c1ccc(Cl)cc1   101
 8           Cc1cc(C)c(N)c(C#Cc2cccc(F)c2)n1  93.2
 9                     N[C@@H](CSCCCO)C(=O)O  97.2
10  O=C(NCCCN1CCOCC1)c1ccc(Cl)cc1 [eprobemide]   103
11  FC(F)(F)Oc1ccc2nc(-c3ccc(OCCOCCOc4ccc(-c5nc6ccc(OC(F)(F)F)cc6[nH]5)nc4)cn3)[nH]c2c1    82
12         Cc1nn(C)c2c1C(c1cccc(Cl)c1)=NCCN2   117
13       CCCN1CCO[C@@H]2c3cc(O)ccc3OC[C@H]21   109
14                 O=C(CCCCCCCC(=O)NCCO)NCCO   104
15  Cc1cc(OCc2nnc(SC3CCCC3)n2-c2cccnc2)ccc1-c1ccc(S(C)(=O)=O)cc1  77.7
16  COc1ccc(Cl)cc1C(=O)NCCc1ccc(C(=O)O)cc1 [meglitinide]  91.5
17  O=C(c1ccc(Cl)o1)N1CC2CNCC2C1 (stereo unspecified)   103
18  C[C@@]1(O)[C@H](O)[C@@H](CO)O[C@H]1n1ccc(N)nc1=O  91.2
19       Nc1ccn([C@H]2CO[C@@H](CO)S2)c(=O)n1   103
20                CCN(CC)CCNC(=O)c1ccc(I)cc1   106
21  COC(=O)c1ccc2c(c1)NC(=O)/C2=C(\Nc1ccc(N(C)C(=O)CN2CCN(C)CC2)cc1)c1ccccc1  94.7
22     COc1ccc(Cc2nccc3cc(OC)c(OC)cc23)cc1OC  86.1
23  O=C(O)[C@H]1CC[C@H](c2cc3cccnc3c(-c3cccc(F)c3)n2)CC1    98
24  CC(C)=CCC/C(C)=C/CC/C(C)=C/CCC(=O)OC/C=C(\C)CCC=C(C)C [geranyl-farnesylacetate]  91.4
25    CNC(=O)COC(=O)NCCC1CCN(c2cccc(C)n2)CC1  99.3
26  O=c1oc(-c2ccc(C(F)(F)F)cc2)nn1Cc1cc(Cl)ccc1O  99.2
